B1: TPR 5TU (parent)
chain: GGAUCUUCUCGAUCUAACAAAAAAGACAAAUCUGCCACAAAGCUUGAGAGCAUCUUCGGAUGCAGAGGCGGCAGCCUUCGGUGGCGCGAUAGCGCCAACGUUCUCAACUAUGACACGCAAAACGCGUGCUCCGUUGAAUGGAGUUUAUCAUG

variants of: B1; assay: polymerase ribozyme fitness, log enrichment relative to wild type (log ratio); higher = more active; in vitro selection for triplet polymerase activity
Fewer inactive variants are shown than the library holds.
metric: polymerase ribozyme fitness (log ratio)
The answer should be written as a number, with no unit following it.

variant-description	experimental-result
C8A A26U	-3.66
C51U C85G A106G	-2.8
G25A U56A	-1.67
C54U G92A	-3

Please look up its polymerase ribozyme fitness (log ratio): A47G G62U A142G U146G
-4.12

Please look up its polymerase ribozyme fitness (log ratio): C5U A121G
0.614
